Consider the following binders; for each one, report its IC50, inhibition of CDC of Daudi cells, 1.66% human serum, 2 nM anti-CD20 antibody.
- Assayed System: human C5 (human, UniProt P01031 19-1676)
- Method: cell-based or functional assay

*Q* Item under review: H4H12166P8 (antibody, human IgG4, V domains shown, histidine-mutated CDR variant of H4H12166P; human IgG4 (S108P)) VH: QVQLQESGPGLVKPSETLSLTCTVSGDSVSSSYWTWIRQPPGKGLEWIGYIYYSGSSNYNPSLKSRATISVDTSKNQFSLKLSSVTAADTAVYYCAREGNVDHTMIFDYWGQGTLVTVSS VL: AIQMTQSPSSLSASVGDRVTITCRASQGIRNDLGWYQQKPGKAPKLLIYAASSLQSGVPSRFAGRGSGTDFTLTISSLQPEDFATYYCHQDFNYPWTFGQGTKVEIK . Reported IC50, inhibition of CDC of Daudi cells, 1.66% human serum, 2 nM anti-CD20 antibody?
*A* 4.1 nM

*Q* Item under review: H4H12166P2 (antibody, human IgG4, V domains shown, histidine-mutated CDR variant of H4H12166P; human IgG4 (S108P)) VH: QVQLQESGPGLVKPSETLSLTCTVSGDSVSSSYWTWIRQPPGKGLEWIGYIYYSGSSNYNPSLKSRATISVDTSKNQFSLKLSSVTAADTAVYYCAREGNVDTTMIFDYWGQGTLVTVSS VL: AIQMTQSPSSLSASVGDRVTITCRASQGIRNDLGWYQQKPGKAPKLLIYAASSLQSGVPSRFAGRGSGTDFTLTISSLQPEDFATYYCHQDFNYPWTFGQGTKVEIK . Reported IC50, inhibition of CDC of Daudi cells, 1.66% human serum, 2 nM anti-CD20 antibody?
*A* 3.7 nM

*Q* Item under review: H4H12166P9 (antibody, human IgG4, V domains shown, histidine-mutated CDR variant of H4H12166P; human IgG4 (S108P)) VH: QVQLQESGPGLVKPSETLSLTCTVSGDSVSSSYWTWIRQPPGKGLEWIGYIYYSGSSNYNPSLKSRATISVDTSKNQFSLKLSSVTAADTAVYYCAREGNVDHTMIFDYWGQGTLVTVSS VL: AIQMTQSPSSLSASVGDRVTITCRASQGIRNDLGWYQQKPGKAPKLLIYAASSLQSGVPSRFAGRGSGTDFTLTISSLQPEDFATYYCLQDFNYPWHFGQGTKVEIK . Reported IC50, inhibition of CDC of Daudi cells, 1.66% human serum, 2 nM anti-CD20 antibody?
*A* 3.9 nM

*Q* Item under review: H4H12166P6 (antibody, human IgG4, V domains shown, histidine-mutated CDR variant of H4H12166P; human IgG4 (S108P)) VH: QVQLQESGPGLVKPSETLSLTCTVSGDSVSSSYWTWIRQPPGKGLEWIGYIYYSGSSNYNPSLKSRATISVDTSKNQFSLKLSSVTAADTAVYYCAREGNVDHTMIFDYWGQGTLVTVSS VL: AIQMTQSPSSLSASVGDRVTITCRASQGIRNDLGWYQQKPGKAPKLLIYAASSLQSGVPSRFAGRGSGTDFTLTISSLQPEDFATYYCLQDFNYPWTFGQGTKVEIK . Reported IC50, inhibition of CDC of Daudi cells, 1.66% human serum, 2 nM anti-CD20 antibody?
*A* 3 nM
